System: T-47D breast
Assay: NCI tumour cell line growth inhibition, 48 h
Entries and their TGI values follow.

Below, 3 compounds whose answers are already recorded.
compound	TGI
CCOC(=O)Nc1n[nH]nc1Cl	> 100 µM
CN1c2ccccc2C(=O)NC12CCNCC2	> 100 µM
S=C(Nc1ccc2c(c1)oc1ccccc12)c1cccs1	> 100 µM

Any idea what TGI was measured for CCC(c1ccc(OC)cc1)C1NC(=S)NC1=O (stereo not given) ?
> 50 µM

Query: TGI; subject: Cc1c2ccccc2c(C2C3C(=O)N(c4cccc5ccccc45)C(=O)C3ON2Cc2ccc(CC(N)=O)cc2)c2ccccc12 (stereo not given)
> 50 µM

Every entry's value here was drawn from PubChem BioAssay (NCI).
